Hello, the source for this data is the supplement of paper PMC4466140, in case you need it.

- targetDesc: AgBem1-D1
- measurementNotes: SPOT peptide array binding signal intensity (averaged, normalized) (arbitrary units (background-subtracted, floor 0; scale differs between SH3 domains)); higher = stronger binding of the SH3 domain to the peptide
assayMetric: SPOT peptide array binding signal intensity
// response body must contain only the number

binder	measuredResult
NHSRSLFSLPGNQQS	96.5
KKIRLIFTYPSTVGR	241

Find the recorded SPOT peptide array binding signal intensity belonging to LLLLFVPDSPYDPAI and report it.
27
